These measurements were taken from PubChem BioAssay AID504382.

- assay.text: IANBD-channel fluorescence artefacts in buffer – biochemical, artefact control for cardiac RTF calcium sensitizer project, confirmation (AID 504382)
- condition.summary: IANBD fluorescence interference counterscreen, EC20 Ca2+, at 7.2 µM, scaled: EC20 calcium 0, EC100 calcium 100
In all, about 2,500 compounds went through this assay and about 460 (18%) were called active.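 How the source made its calls: active means mean activation above a cutoff of low control average plus 3 SD from the earlier screen (cut at about 12% in these data); inactive means the rest.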 The list is a sample of the results.
A correct response names exactly one class from 1 (active), 0 (inactive)

> print(dat)
                                   compound  label.value
1  CN1CCCC(OC(=O)c2ccccc2Br)C1 (stereo unspecified)            1
2  COc1ccc(C2C(C(=O)c3cccs3)=C(O)C(=O)N2c2nncs2)cc1 (stereo unspecified)            0
3  CN(C)c1ccc(/C=C/c2nc3ccccc3c(=O)n2-c2ccc(C(=O)O)cc2)cc1            0
4  O=C(C1=C(O)C(=O)N(c2nccs2)C1c1ccccc1)c1cc2ccccc2o1 (stereo unspecified)            0
5  CCO[C@@H]1OC(C(=O)O)=C[C@H](c2coc3ccccc3c2=O)[C@H]1CCCO            0
6  CC(NC(=O)COc1ccc(N(C)S(=O)(=O)c2ccccc2)cc1)c1ccccc1 (stereo unspecified)            0
7  Cc1ccc(NC(=O)COc2ccc(/C=N/NC(=O)CSCc3ccccc3)cc2)cc1            1
8     COc1ccc(C(=O)N/N=C/c2sc3ccccc3c2O)cc1            0

// param item: CCC(/C=C1\Oc2ccc(OC)cc2N1C)=C\c1sc2ccccc2[n+]1CCCS(=O)(=O)[O-] ; yields the recorded call 0

// param item: O=C(OCCN1CCCCC1)c1ccccc1Br ; yields the recorded call 0

// param item: CC(=O)Nc1ccc(N=Cc2nc(-c3ccc(C)cc3)oc2O)cc1 ; yields the recorded call 0

// param item: Cc1nn(-c2ccccc2)c(N2CCCC2)c1/C=C1\N=C(c2ccc(OC(C)C)cc2)OC1=O ; yields the recorded call 0

// param item: Cc1cccc(N2CCN(C(=O)Cn3nc(Cc4ccncc4)c4ccccc4c3=O)CC2)c1C ; yields the recorded call 0

// param item: O=C(N/N=C/c1sc2ccccc2c1O)c1ccccc1 ; yields the recorded call 0

// param item: CN(C)c1ccc(/C=C/c2nc3ccccc3c(=O)n2CCO)cc1 ; yields the recorded call 1

// param item: COC(=O)c1cc2c(C)c(C)c3ccccn3c-2c1C(=O)OC ; yields the recorded call 0

// param item: COc1ccc(/C(C)=N/N2C(=O)c3ccccc3NC2c2ccc(O)c(OC)c2)cc1 (stereo unspecified) ; yields the recorded call 0

// param item: O=C(Nc1ccc(Cl)c(Cl)c1)Nc1ccc([N+](=O)[O-])cn1 ; yields the recorded call 0

// param item: COc1ccc2cc(C(=O)N/N=C/c3sc4ccccc4c3O)ccc2c1 ; yields the recorded call 1

// param item: COc1cccc2c1C(=O)c1c(O)c3c(c(O)c1C2=O)CC(O)(C(C)=NNC(=O)c1ccc(Cl)c(Cl)c1)CC3OC1CC(N)C(O)C(C)O1 (stereo unspecified) ; yields the recorded call 0

// param item: COCCn1c(C)cc(C(=O)COC(=O)c2ccc(Cl)c(S(N)(=O)=O)c2)c1C ; yields the recorded call 0

###

- assay.text: IANBD-channel fluorescence artefacts in buffer – biochemical, artefact control for cardiac RTF calcium sensitizer project, confirmation (AID 504382)
- condition.summary: IANBD fluorescence interference counterscreen, EC20 Ca2+, at 7.2 µM, stronger effect = higher value, scaled: EC20 calcium 0, EC100 calcium 100
Among all 2,500 compounds or so, about 460 (18%) were called active. The list is a sample of the results.
measured.metric: fluorescence artifact activation (%)
Give bare numbers, in %.

> print(dat)
                                   compound  unit.text  reported.result
1  CC(=O)C1=C(C)N(CC2CC2)C(=O)N[C@H]1c1ccc(Br)cc1          %             36.6
2                CCCC(=O)NCCCc1nc2ccccc2n1C          %             43.2

Fill in fluorescence artifact activation for each of the 6 compounds listed.
1. Cc1ccccc1-c1noc(-c2cccs2)n1
2. CSCCC(NC(=O)c1ccc(Cl)cc1)C(=O)OCC(=O)c1ccc[nH]1 (centres undefined)
3. CN(C)c1ccc(/C=C2\SC(=S)N(Nc3ncc(C(F)(F)F)cc3Cl)C2=O)cc1
4. O=[N+]([O-])c1ccc(N(c2ccccc2)c2ccccc2)cc1
5. O=C1c2ccccc2-c2onc3c(N4CCN(CCO)CC4)cc(N4CCN(C(=O)c5ccco5)CC4)c1c23
6. CCOC(=O)C1CCCN(C2=NC(=O)/C(=C/c3ccc(N(C)C)cc3)S2)C1 (centres undefined)

1: 5.07; 2: 0.05; 3: 1.93; 4: 2.48; 5: 0.06; 6: 0.84

Fill in fluorescence artifact activation for each of the 2 compounds listed.
1. CC1C/C(=C/c2cccn2C)C(=O)/C(=C/c2cccn2C)C1 (centres undefined)
2. Cc1ccc(S(=O)(=O)Nc2ccccc2N(C)S(=O)(=O)c2ccc(C)cc2)cc1

1: 0.08; 2: 2.27

Fill in fluorescence artifact activation for each of the 2 compounds listed.
1. C=CCn1c(C)cc(-c2csc(N)n2)c1C
2. Cn1c(CCNC(=O)c2ccco2)nc2ccccc21

1. 2.95
2. 350

Fill in fluorescence artifact activation for each of the 3 compounds listed.
1. CN(C)c1ccc(/C=N/N(CCO)C2=NS(=O)(=O)c3ccccc32)cc1
2. Cc1ccnc(N/C=C(\C#N)c2nc(-c3cccc(Br)c3)cs2)c1
3. CCOC(=O)c1c(C)oc2c1c(C=NCCO)c(O)c1ccccc12

1. 0.26
2. 5.15
3. 0.07

###

- assay.text: IANBD-channel fluorescence artefacts in buffer – biochemical, artefact control for cardiac RTF calcium sensitizer project, confirmation (AID 504382)
- condition.summary: IANBD fluorescence interference counterscreen, EC20 Ca2+, at 7.2 µM, stronger effect = higher value, scaled: EC20 calcium 0, EC100 calcium 100
In all, about 2,500 compounds went through this assay and about 460 (18%) were called active. A selection follows.
measured.metric: fluorescence artifact activation (%)
Give bare numbers, in %.

Please review the following examples before continuing.
> print(dat)
                                   compound  unit.text  reported.result
1  COc1cccc(C(=O)Nc2cc(C(=O)NCc3ccc(C)cc3)ccc2N2CCC3(CC2)CC(c2cccc(Br)c2)=NO3)c1          %            -0.03
2           Cn1cc(Cl)c(-c2nc3ccccc3[nH]2)n1          %             2.42
3   Cc1cccc(/C=C2/SC(=O)N(Cc3ccccc3)C2=O)n1          %             15.4
4          O=c1[nH]c2ccccc2nc1/C=C/c1ccccc1          %              119
5        O=c1[nH]c2ccccc2nc1/C=C(\O)c1cccs1          %             1.76
6         O=C(CSc1nncc2ccccc12)Nc1ccc(F)cc1          %             51.6
7  O=S(=O)(c1ccc(F)cc1)N1CN(Cc2ccco2)c2nc3ccccc3nc21          %             8.07
8  Nc1nc(SCC(=O)Nc2ccc(Cl)cc2)[nH]c(=O)c1-c1ccccc1          %              0.2

Fill in fluorescence artifact activation for each of the 3 compounds listed.
1. O=c1cc(-c2ccccc2)oc2ccc(Br)cc12
2. CCC(CO)[n+]1c(C)cc(/C=C2\Sc3ccccc3N2Cc2ccccc2)cc1C (stereo unspecified)
3. COc1ccc(S(=O)(=O)N2CN(Cc3ccco3)c3nc4ccccc4nc32)cc1

1. 0.06
2. 0.01
3. 37.3

###

Would you mind telling me the reported fluorescence artifact activation of each entry?
- assay.text: IANBD-channel fluorescence artefacts in buffer – biochemical, artefact control for cardiac RTF calcium sensitizer project, confirmation (AID 504382)
- condition.summary: IANBD fluorescence interference counterscreen, EC20 Ca2+, at 7.2 µM, stronger effect = higher value, scaled: EC20 calcium 0, EC100 calcium 100
In all, about 2,500 compounds went through this assay and about 460 (18%) were called active. A selection follows.

Please review the following examples before continuing.
> print(dat)
                                   molecule   reported.result
1  COc1ccc(/C=C/C(=O)NC(=S)Nc2ccc(C(=O)O)cc2)cc1  6.95% (inactive)
2  CN1C2CCC1/C(=C/c1cccn1C)C(=O)/C2=C\c1cccn1C  0.09% (inactive)
3  CCCCCCCCOc1ccc(C2OC34CCCCC3C(C#N)(C#N)C2(C#N)C(=N)O4)cc1 (stereo not drawn)  4.01% (inactive)
4  CC1CN(CCCCOc2ccc3ccccc3c2)CC(C)O1 (stereo not drawn)  0.12% (inactive)
5               N/C(COc1cc(Cl)cc(Cl)c1)=N\O    21.9% (active)

Fill in fluorescence artifact activation for each of the 6 molecules listed.
1. C/C(O)=c1/ccc2cccc3nc(C)nc1c23
2. COc1ccc(O)c(/C=C2/SC(=S)N(Cc3ccccc3)C2=O)c1
3. O/C(=C\c1nc2ccccc2[nH]1)c1cccs1
4. O=C(NCc1cccc(C(F)(F)F)c1)c1cccc(S(=O)(=O)NCc2ccccc2)c1
5. O=C1/C(=C\c2cc(Cl)c(O)c(Cl)c2)SC(=S)N1Cc1ccccc1
6. CCCCCOc1ccc(CN2CCOCC2)cc1Cl

13.3% (active)
0.17% (inactive)
0% (inactive)
0.02% (inactive)
-0.11% (inactive)
25.8% (active)

Fill in fluorescence artifact activation for each of the 6 molecules listed.
1. COc1cccc(/C=N/c2nc3ccccc3[nH]2)c1O
2. COC(=O)[C@@]1(Cc2ccc(OC)cc2)[C@@H]2C(=CC(=O)[C@H]2CC(=O)C(=O)N2CCCC2)CN1C(=O)c1ccccc1
3. CCCc1ccc(OCc2ccc(C(=O)NN)o2)c(OC)c1
4. COc1cc(/C=C2/SC(=S)N(Cc3ccccc3)C2=O)cc(Cl)c1O
5. Cc1cc2cc(C=C(C#N)C#N)c(Cl)nc2cc1C
6. COc1ccc(/C=N/NC(=O)c2cc(OC)c(OC)c(OC)c2)cc1CN1CCc2cc(OC)c(OC)cc2C1C (stereo not drawn)

1: 0.01% (inactive); 2: 15% (active); 3: -0.08% (inactive); 4: 1800% (active); 5: -0.03% (inactive); 6: 7.53% (inactive)

Fill in fluorescence artifact activation for each of the 6 molecules listed.
1. COC(=O)N1c2ccccc2CCc2ccccc21
2. CCCOc1ccc(Cn2c(=O)oc3ccc(C)cc32)cc1OC
3. COc1cc(/C=N\NC(=O)CC(=O)NCCc2ccccc2)ccc1O
4. Cc1ccccc1C(=O)c1cccn1CC(=O)NCCCN1CC(C)CC(C)C1 (stereo not drawn)
5. C=C[C@@](C)(O)CC[C@@H]1[C@@]2(C)CCCC(C)(C)[C@@H]2CC[C@@]1(C)O
6. CCOc1ccc2ccccc2c1CNCCN1CCOCC1

1. 1.49% (inactive)
2. 6.44% (inactive)
3. 0.17% (inactive)
4. 0.1% (inactive)
5. 0.16% (inactive)
6. 9.02% (inactive)
